Each recorded value in this set is attributed to patent US20230295200A1.

Entries annotated with measured pKi
experimentalSystem: STAT6 protein (Homo sapiens, UniProt P42226)
Sequence (P42226 whole entry): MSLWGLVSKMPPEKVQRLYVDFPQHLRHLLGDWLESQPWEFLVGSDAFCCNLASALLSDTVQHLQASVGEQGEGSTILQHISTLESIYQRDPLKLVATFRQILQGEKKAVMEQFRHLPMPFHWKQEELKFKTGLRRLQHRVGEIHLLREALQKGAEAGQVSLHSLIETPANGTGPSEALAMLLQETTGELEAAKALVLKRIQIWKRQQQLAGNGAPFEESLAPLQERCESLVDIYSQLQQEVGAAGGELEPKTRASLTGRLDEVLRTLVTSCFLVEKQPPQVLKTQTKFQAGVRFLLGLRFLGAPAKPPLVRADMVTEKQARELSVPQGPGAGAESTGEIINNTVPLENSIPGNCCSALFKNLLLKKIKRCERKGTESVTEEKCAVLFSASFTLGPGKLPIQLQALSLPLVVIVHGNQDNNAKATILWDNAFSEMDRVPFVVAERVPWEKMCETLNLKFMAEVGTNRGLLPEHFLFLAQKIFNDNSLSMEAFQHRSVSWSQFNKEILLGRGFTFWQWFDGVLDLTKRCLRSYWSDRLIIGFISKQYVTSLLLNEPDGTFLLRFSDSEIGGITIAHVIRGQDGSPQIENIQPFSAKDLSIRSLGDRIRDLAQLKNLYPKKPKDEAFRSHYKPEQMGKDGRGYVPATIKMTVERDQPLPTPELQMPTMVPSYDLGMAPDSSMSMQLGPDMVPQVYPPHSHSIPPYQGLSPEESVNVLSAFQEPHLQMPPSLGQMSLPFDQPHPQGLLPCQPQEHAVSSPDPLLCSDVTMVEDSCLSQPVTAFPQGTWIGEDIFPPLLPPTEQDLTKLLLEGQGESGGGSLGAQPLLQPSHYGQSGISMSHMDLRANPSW
assayInfo: Fluorescence polarization (FP) binding assay, STAT6
conditionDetails: FP competition, 5 nM fluorescein-labeled tracer, 200 nM protein, PBS pH7.4; read-out: Binding STAT6
pKi: −log10 of the molar value.

CC(C)(C)[C@H](NC(=O)/C=C/c1ccc(C(F)(F)P(=O)(O)O)cc1)C(=O)N1CCC[C@H]1C(=O)N(c1ccccc1)c1ccc(I)cc1: 6.00 to 7.00
NCCCC[C@H](NC(=O)c1cc2cc(C(F)(F)P(=O)(O)O)ccc2[nH]1)C(=O)N1CCC[C@H]1C(=O)N1CCc2ccccc2C1: 5.00 to 6.00
CC(C)(C)[C@H](NC(=O)c1cc2cc(C(F)(F)P(=O)(O)O)ccc2[nH]1)C(=O)N1CCC[C@H]1C(=O)N(c1ccccc1)c1ccc(I)cc1: 6.00 to 7.00
NCCC[C@H](NC(=O)c1cc2cc(C(F)(F)P(=O)(O)O)ccc2s1)C(=O)N1CCC[C@H]1C(=O)N1CCO[C@H](c2ccccc2)C1: > 7.00
CCOC(=O)CO[C@@H]1C[C@@H](C(=O)Nc2ncc(-c3ccccc3)s2)N(C(=O)[C@@H](NC(=O)c2cc3cc(C(F)(F)P(=O)(O)O)ccc3s2)C(C)(C)C)C1: 5.00 to 6.00

Turning now to a further compound:
Prompt: What measured pKi is associated with CC(C)(C)[C@H](NC(=O)c1cc2cc(C(F)(F)P(=O)(O)O)ccc2s1)C(=O)N1CCC[C@H]1C(=O)N(Cc1ccccc1)C1CCCCC1 on STAT6 protein (Homo sapiens, UniProt P42226)?
Response: 5.00 to 6.00

* * *

experimentalSystem: STAT6 protein (Homo sapiens)
assayInfo: Fluorescence polarization (FP) binding assay, STAT6
conditionDetails: FP competition, 5 nM fluorescein-labeled tracer, 200 nM protein, PBS pH7.4; read-out: Binding STAT6
attributeMeasured: Ki

Take a look at these entries with their results.
O=C(/C=C/c1ccc(C(F)(F)P(=O)(O)O)cc1)NC(C(=O)N1CCC[C@H]1C(=O)N1CCc2ccccc2C1)C1CCNCC1 (stereo partly shown): > 10000 nM
CNC(=O)c1ccc(N(C(=O)[C@@H]2CCCN2C(=O)[C@@H](NC(=O)c2cc3cc(C(F)(F)P(=O)(O)O)ccc3s2)C(C)(C)C)c2ccc(I)cc2)cc1: 100 to 1000 nM
CC(C)(C)[C@H](NC(=O)c1cc2cc(C(F)(F)P(=O)(O)O)ccc2s1)C(=O)N1C[C@H](Oc2ccccc2)C[C@H]1C(=O)N1CCO[C@H](c2ccccc2)C1: 100 to 1000 nM
CC(=O)N1CC[C@H]2CC[C@@H](C(=O)N(C)c3ccc(Cl)cc3)N2C(=O)[C@@H](NC(=O)c2cc3cc(C(F)(F)P(=O)(O)O)ccc3[nH]2)C1: > 10000 nM
CC(C)(C)[C@H](NC(=O)c1cc2cc(C(F)(F)P(=O)(O)O)ccc2s1)C(=O)N1Cc2ccccc2C[C@H]1C(=O)N1CCOC(c2ccc(F)cc2F)C1 (stereo partly shown): 100 to 1000 nM
CC(C)(C)[C@H](NC(=O)c1cc2cc(C(F)(F)P(=O)(O)O)ccc2s1)C(=O)N1CCCC[C@H]1C(=O)N1CCC[C@H](c2ccccc2)C1: 100 to 1000 nM
CC(=O)N1CC[C@H]2CC[C@@H](C(=O)N3CCCOCC3)N2C(=O)[C@@H](NC(=O)c2cc3cc(C(F)(F)P(=O)(O)O)ccc3[nH]2)C1: > 10000 nM
CC(C)(C)[C@H](NC(=O)c1cc2cc(C(F)(F)P(=O)(O)O)ccc2s1)C(=O)N1Cc2ccccc2C[C@H]1C(=O)N1CCOC(c2ccc(F)cc2)C1 (stereo partly shown): 100 to 1000 nM

Prompt: // Ki lookup, key: CC(C)(C)[C@H](NC(=O)c1cc2cc(C(F)(F)P(=O)(O)O)ccc2s1)C(=O)N1Cc2ccccc2C[C@H]1C(=O)N1CCOC(c2cccc(Cl)c2)C1 (stereo partly shown)
Response: < 100 nM

Prompt: // Ki lookup, key: Cc1cc(C2CN(C(=O)[C@@H]3CCCN3C(=O)[C@@H](NC(=O)c3cc4cc(C(F)(F)P(=O)(O)O)ccc4s3)C(C)(C)C)CCO2)ccc1F (stereo partly shown)
Response: 1000 to 10000 nM

Prompt: // Ki lookup, key: CC(C)(C)[C@H](NC(=O)c1cc2cc(C(F)(F)P(=O)(O)O)ccc2s1)C(=O)N1Cc2ccccc2C[C@H]1C(=O)N1CCOC(c2cccc3ccccc23)C1 (stereo partly shown)
Response: 100 to 1000 nM

Prompt: // Ki lookup, key: O=C(N[C@H](C(=O)N1CCC[C@H]1C(=O)N1CCO[C@H](c2ccccc2)C1)C1CC1)c1cc2cc(C(F)(F)P(=O)(O)O)ccc2s1
Response: 100 to 1000 nM
